# SYSTEM TESTED: T1, human CCR8 (human, UniProt P51685 1-355)
# T1 construct: Native CCR8 on human PBMC (CCR8+ CD3+ or CCR8+ CD4+ lymphocytes); also called chemokine (C-C motif) receptor 8
# T1 sequence (P51685 whole entry): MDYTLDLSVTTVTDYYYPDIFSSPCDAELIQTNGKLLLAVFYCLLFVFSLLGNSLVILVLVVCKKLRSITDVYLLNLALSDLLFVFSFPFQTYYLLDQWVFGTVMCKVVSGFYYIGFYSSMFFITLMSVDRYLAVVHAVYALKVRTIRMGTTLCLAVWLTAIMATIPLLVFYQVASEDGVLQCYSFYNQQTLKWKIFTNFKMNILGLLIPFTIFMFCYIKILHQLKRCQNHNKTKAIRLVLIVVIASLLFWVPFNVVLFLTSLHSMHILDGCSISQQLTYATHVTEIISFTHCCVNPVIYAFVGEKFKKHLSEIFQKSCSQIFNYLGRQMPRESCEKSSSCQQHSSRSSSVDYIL
# EXPERIMENT: flow blocking, PBMC CCR8+CD4+; competitor PE-AB5
Known % Positive cells of a selection of binders
Give your result in % as a bare value.

AB5 (antibody, V domains shown, Hybridoma monoclonal; Same VH/VL entries as AB6; also called antibody 5; clone 5) VH: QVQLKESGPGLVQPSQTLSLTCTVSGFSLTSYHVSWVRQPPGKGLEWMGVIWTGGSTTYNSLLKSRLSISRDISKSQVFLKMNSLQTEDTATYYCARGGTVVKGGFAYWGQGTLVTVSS VL: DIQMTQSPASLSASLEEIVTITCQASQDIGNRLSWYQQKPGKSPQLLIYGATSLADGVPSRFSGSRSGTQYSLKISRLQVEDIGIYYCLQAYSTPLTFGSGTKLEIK | 0.18

Incoming: # query: % Positive cells of entry AB2 (antibody, V domains shown, Hybridoma monoclonal; Same VH/VL entries as AB1; also called antibody 2; clone 2) VH: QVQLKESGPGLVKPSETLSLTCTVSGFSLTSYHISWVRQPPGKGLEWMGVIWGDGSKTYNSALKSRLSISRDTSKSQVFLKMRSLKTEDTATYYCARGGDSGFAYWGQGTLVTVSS VL: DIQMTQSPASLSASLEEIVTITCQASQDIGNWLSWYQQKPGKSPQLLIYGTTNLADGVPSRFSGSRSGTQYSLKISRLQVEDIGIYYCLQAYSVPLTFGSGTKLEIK
Outgoing: 0.2

Incoming: Repeat for the following binder: AB15 (antibody, V domains shown, Hybridoma monoclonal; Same VH/VL entries as AB14; also called antibody 15; clone 15) VH: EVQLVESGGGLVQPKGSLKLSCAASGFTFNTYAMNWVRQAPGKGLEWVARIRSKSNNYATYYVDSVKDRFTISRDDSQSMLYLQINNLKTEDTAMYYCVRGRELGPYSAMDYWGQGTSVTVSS VL: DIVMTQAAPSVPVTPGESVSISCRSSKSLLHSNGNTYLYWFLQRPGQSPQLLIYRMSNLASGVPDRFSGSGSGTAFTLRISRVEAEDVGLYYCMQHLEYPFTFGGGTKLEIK
Outgoing: 2.38
